- tested_system: T1, full-length mouse CD70 with C-terminal V5 tag (mouse, UniProt O55237 1-195)
- T1 construct: On transfected CHO cells; also called murine CD70
- T1 sequence: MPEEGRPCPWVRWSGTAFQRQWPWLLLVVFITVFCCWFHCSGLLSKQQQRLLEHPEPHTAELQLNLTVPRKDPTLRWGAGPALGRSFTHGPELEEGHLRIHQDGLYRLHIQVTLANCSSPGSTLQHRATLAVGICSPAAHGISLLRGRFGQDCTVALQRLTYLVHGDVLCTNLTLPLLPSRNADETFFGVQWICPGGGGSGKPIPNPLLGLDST
- experiment_notes: FACS on CHO cells, periplasmic scFv
property: binding result

CD70-7 (scFv, As m32) scFv: QVHLVQSGAEVKKPGASVRVSCKASGYTFTSYYLHWVRQAPGQCLEWMGIVDPSGGSTSYDQKFQGRFTMTRDTSTSTVYMELSSLRSEDTAVYYCARDYGDYVFDYWGQGTLVTVSSGGGGSGGGGSGGGGSQSVLTQPPSASGTPGQRVTISCSGSSSNIGTNTVNWYQQLPGTAPQLLIYINNQRPSGVPDRFSGSKSGTSASLAISGLQSEDEADYYCATWDDSLNGPVVGCGTKLTVL    no binding
CD70-36 (scFv, As m32) scFv: EVQLLESGGGLVQPGGSLRLSCAASGFTFSSYAMSWVRQAPGQGLEWVSAISGSGGRTYYADSVKGRFTISRDNSKNTLYLQMNSLRAEDTAVYYCAKHDYSNYPYFDYWGQGTLVTVSSGGGGSGGGGSGGGGSEIVLTQSPGTLSLSPGERATLSCRASQSVRGSYLAWYQQKPGQAPRLLIYSASSRATGIPDRFSGSGSGTDFTLTISRLEPEDFAVYYCQQYGDSPFTFGPGTKVEIK    no binding
CD70-11 (scFv, As m32) scFv: QVQLVESGGGVVQPGRSLRLSCAASGFTFSTYGMHWVRQAPGKCLEWVAVIWYDGSNKYYGDSVKGRFTISRDNSKNTLYLQMNSLRAEDTAVYYCARDNSHYYYGMDVWGQGTTVTVSSGGGGSGGGGSGGGGSQSVLTQPPSVSGAPGQRVTISCTGSSSNIGAGYDVNWYQQFPGTAPKLLIYVNNNRPSGVPDRFSGSTSGTSASLAITGLQAEDEADYYCQSYETSLSASVFGCGTRLTVL    no binding
